Origin of values: patent US11905306B2

Tested on: USA_WA1/2020 SARS CoV-2
Protocol summary: microbe, parasite or virus in culture
Type: cell-based
Condition set: Severe acute respiratory syndrome coronavirus 2, Vero C1008, 72 h, read-out: SARS-2 EC50 (μM) VeroE6
Parameter: EC50 (µM)

[[record]]
molecule_smiles = "COC(=O)c1ccc(C(=O)Nc2cccc(C#Cc3ccccn3)c2)cc1"
target_or_test_system = "USA_WA1/2020 SARS CoV-2"
parameter = "EC50"
unit_name = "µM"
experimental_result = 0.52

[[record]]
molecule_smiles = "CCOC(=O)Nc1ccc(C(=O)Nc2cccc(C#Cc3ccccn3)c2)cc1"
target_or_test_system = "USA_WA1/2020 SARS CoV-2"
parameter = "EC50"
unit_name = "µM"
experimental_result = 1.07

[[record]]
molecule_smiles = "CC(C)(C)OC(=O)c1ccc(C(=O)Nc2cccc(C#Cc3ccccn3)c2)cc1"
target_or_test_system = "USA_WA1/2020 SARS CoV-2"
parameter = "EC50"
unit_name = "µM"
experimental_result = 0.16

[[record]]
molecule_smiles = "O=C(Nc1cccc(C#Cc2ccccn2)c1)c1ccc(N2CCCCC2=O)cc1"
target_or_test_system = "USA_WA1/2020 SARS CoV-2"
parameter = "EC50"
unit_name = "µM"
experimental_result = 1.87

[[record]]
molecule_smiles = "COC(=O)c1ccc(NC(=O)c2cccc(C#Cc3ccccn3)c2)cc1"
target_or_test_system = "USA_WA1/2020 SARS CoV-2"
parameter = "EC50"
unit_name = "µM"
experimental_result = 0.55


###

Catalogue of SARS-2 VU-VTR @ 20 μM (A549-hACE2) (logs) values
Test system: SARS-2
Parameter: SARS-2 VU-VTR @ 20 μM (A549-hACE2) (logs)

[[record]]
molecule_smiles = "CC(=O)Nc1ccc(C(=O)Nc2cccc(C#Cc3ccccn3)c2)cc1"
experimental_result = "2.05 logs"

[[record]]
molecule_smiles = "O=C1CCc2cc(NC(=O)c3cccc(C#Cc4ccccn4)c3)ccc2N1"
experimental_result = "2.24 logs"

[[record]]
molecule_smiles = "COC(=O)c1ccc(C(=O)Nc2cccc(C#Cc3ccccn3)c2)cc1"
experimental_result = "2.36 logs"

[[record]]
molecule_smiles = "O=C1CCc2cc(C(=O)Nc3cccc(C#Cc4ccccn4)c3)ccc2N1"
experimental_result = "1.95 logs"

[[record]]
molecule_smiles = "CN1C(=O)CCc2cc(C(=O)Nc3cccc(C#Cc4ccccn4)c3)ccc21"
experimental_result = "3.32 logs"

[[record]]
molecule_smiles = "CCOP(=O)(OCC)c1ccc(NC(=O)c2cccc(C#Cc3ccccn3)c2)cc1"
experimental_result = "2.93 logs"

[[record]]
molecule_smiles = "CC(C)OC(=O)c1ccc(NC(=O)c2cccc(C#Cc3ccccn3)c2)cc1"
experimental_result = "2.78 logs"

[[record]]
molecule_smiles = "O=C(Nc1cccc(C#Cc2ccccn2)c1)c1ccc(-c2ccn[nH]2)cc1"
experimental_result = "3.2 logs"

[[record]]
molecule_smiles = "O=C(Nc1cccc(C#Cc2ccccn2)c1)c1ccc(NC(=O)C2CC2)cc1"
experimental_result = "1.53 logs"


###

Test system: USA_WA1/2020 SARS CoV-2
Protocol summary: microbe, parasite or virus in culture
Format: cell-based
Condition set: Severe acute respiratory syndrome coronavirus 2, Vero C1008, 72 h, read-out: SARS-2 EC50 (μM) VeroE6
Parameter: EC50 (µM)

[[record]]
compound = "O=C(Nc1cc(C#Cc2ccccn2)cc(OC(F)(F)F)c1)c1ccc(N2CCCCC2=O)cc1 [Compound 50]"
parameter = "EC50"
unit_name = "µM"
experimental_result = 0.18

[[record]]
compound = "O=C(Nc1cccc(C#Cc2ccccn2)c1)c1ccc(N2CCNC2=O)cc1 [Compound 14]"
parameter = "EC50"
unit_name = "µM"
experimental_result = 1.06

[[record]]
compound = "O=C(Nc1cccc(C#Cc2ccccn2)c1)c1ccc(NC(=O)N2CCOCC2)cc1 [Compound 13]"
parameter = "EC50"
unit_name = "µM"
experimental_result = 8.25

[[record]]
compound = "O=C(Nc1cccc(C#Cc2ccccn2)c1)c1ccc(NC(=O)C2CC2)cc1 [Compound 8]"
parameter = "EC50"
unit_name = "µM"
experimental_result = 0.94

[[record]]
compound = "O=C(Nc1cccc(C#Cc2ccccn2)c1)c1ccc(N2CCCCCC2=O)cc1 [Compound 25]"
parameter = "EC50"
unit_name = "µM"
experimental_result = 1.09

[[record]]
compound = "O=C(Nc1cccc(C#Cc2ccccn2)c1)c1ccc(N2CCCCS2(=O)=O)cc1 [Compound 77]"
parameter = "EC50"
unit_name = "µM"
experimental_result = 0.957

[[record]]
compound = "O=C1CCCc2cc(C(=O)Nc3cccc(C#Cc4ccccn4)c3)ccc2N1 [Compound 4]"
parameter = "EC50"
unit_name = "µM"
experimental_result = 1.5

[[record]]
compound = "COc1cc(C#Cc2ccccn2)cc(NC(=O)c2ccc3c(c2)CCC(=O)N3)c1 [Compound 46]"
parameter = "EC50"
unit_name = "µM"
experimental_result = 0.78

